# pKd listing for each entry below
# Tested target: human PP2A B56γ1(30–380) (human, UniProt Q13362-2 30-380)
# Test protocol: ITC; B56γ1 in the cell at 0.03 mmol/L, BubR1 protein or peptide at 0.7 mmol/L injected (20 x 1.5 µL); room temperature; 20 mmol/L Tris-HCl pH 8.0, 200 mmol/L NaCl; one-site model
# Particulars: both partners purified
The value called pKd is obtained by taking minus log10 of the concentration in mol/L.

[[record]]
binder = "human BubR1(647–720; E678A/T680A/H681A) (domain or fragment, also called BubR1-AAAA; source: E. coli BL21 (DE3), purified the same way as wild type) KTSEDQQTACGTIYSQTLSIKKLSPIIEDSRAAAASSGFSGSSASVASTSSIKCLQIPEKLELTNETSENPTQS"
observed = 4.98


// lookup pKd for human BubR1(647–720)-3D (S670D/S676D/T680D) (domain or fragment, also called BubR1-3D; source: E. coli BL21 (DE3), purified (Glutathione Sepharose 4B, TEV cleavage, Hitrap Q HP)) KTSEDQQTACGTIYSQTLSIKKLDPIIEDDREADHSSGFSGSSASVASTSSIKCLQIPEKLELTNETSENPTQS
5.64

Numbers sourced from paper PMC4930772.
